Please go through the items and note down their pIC50.
Target: PIK3CB;PIK3CG;PIK3CD;PIK3CA (human) (UniProt P48736)
Assay: Inhibition of PIK3CA/PIK3CB/PIK3CD/PIK3CG Kinase Activity
Formally, pIC50 is defined as -log10 of the concentration c, with c in mol/L.

Query: Consider the compound Cc1cc(C(=O)O)nc2c(-c3cccc(O)c3)nc(N3CCOCC3)nc12 and give its measured pIC50.
Result: 6.65

Query: Consider the compound CN(CCO)c1cc(C(=O)O)nc2c(-c3cccc(CO)c3)nc(N3CCOCC3)nc12 and give its measured pIC50.
Result: 7.13

Query: Consider the compound COCCNc1cc(C(=O)O)nc2c(-c3ccc(F)cc3O)nc(N3CCOCC3)nc12 and give its measured pIC50.
Result: 7.05
